- Assay Notes: Cy5 fluorescence quenching or enhancement artefacts, artefact control for HCV NS3 helicase inhibitor project, biochemical, LOPAC1280 (AID 687037)
- Test Context: Cy5-DNA-NS3h complex fluorescence interference counterscreen
Activity calls are given as the source filed them. No rule for the calls is given here.
I'd be grateful if you could share measured fluorescence ratio (interference) for these entries.

Compound | fluorescence ratio (interference)
O=c1c(-c2ccc(O)cc2)coc2cc(O)ccc12 | 1 (inactive)

Go through the items and report each one's fluorescence ratio (interference).
1. CC(C)C(=O)c1c(C(C)C)nn2ccccc12
2. C[C@@H](O)[C@H]1C(=O)N2C(C(=O)O)=C(SCCN=CN)C[C@H]12
3. O=C(O)c1cc(=O)c2ccccc2[nH]1
4. CC(C)OC(=O)C(C)(C)Oc1ccc(C(=O)c2ccc(Cl)cc2)cc1
5. CN(C)CCCO[C@@H]1[C@H]2OC(C)(C)O[C@H]2O[C@@H]1C(O)CO (stereo partly specified)

1. 1 (inactive)
2. 1 (inactive)
3. 1 (inactive)
4. 1.1 (inactive)
5. 1 (inactive)

----------
- Test System: 6-phosphogluconate dehydrogenase, decarboxylating (Homo sapiens)
- Assay Notes: 6PGD enzyme inhibitors, primary screen, biochemical, human, recombinant enzyme, NADPH absorbance (AID 1159550)
- Test Context: recombinant 6PGD, NADPH absorbance 341 nm; at 10 µM; stronger effect = higher value
Exercise: for every item that follows, state its recorded inhibition.
One number for each entry, in %.

As a guide, the following entries are already answered.
Compound | inhibition [%]
Cc1cc(C(C)(C)CC(C)(C)C)ccc1OCCOCC[N+](C)(C)Cc1ccccc1 | 18.8
CCNC(=O)CC[C@H](N)C(=O)O | 3.3
O=C(O)CN(CCN(CC(=O)O)CC(=O)O)CC(=O)O | 8.13

Please supply inhibition for each of the following items, keeping them in order.
1. COC(=O)[C@@]1(C)CCC[C@]2(C)c3ccc(O)c(C(C)C)c3CCC12 (stereo partly specified)
2. CC(=O)OC1CC[C@@]2(C)C(CC[C@H]3[C@@H]4CC=C(C(C)=O)[C@@]4(C)C(=O)C[C@@H]32)C1 (stereo partly specified)

[-0.875, 4.79]

Quick check: inhibition of C1CCN2CC3CC(CN4CCCCC34)C2C1 (stereo unspecified) ?
12.3

----------
- Assay Notes: differential killing of epithelial or mesenchymal cells, primary screen, imaging, PC-3E GFP, TEM4-18 mCherry, co-culture (AID 1345086);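 also: cells exposed to compound for 72 h before imaging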
- Test Context: imaging cell counts, measured here: epithelial PC-3E GFP cell survival, at 1 µM
Quantity: normalised cell number
Numbers only.

Query Smiles | normalised cell number
CCCCC(=O)N(Cc1ccc(-c2ccccc2-c2nn[nH]n2)cc1)[C@H](C(=O)O)C(C)C | 1.14
COc1cc(O)c2c(c1)C(=O)c1cc(C)cc(O)c1C2=O | 1

Hi, could you look up normalised cell number for each item in my list?
1. O=c1c(-c2cc(O)c(O)c(O)c2)coc2cc(O)c(O)c(O)c12
2. CC(C)=CCC/C(C)=C/CO

1.01
1.13

----------
- Assay Notes: sensitizers of A549 cells to miR-34 induction, primary screen, imaging, A549 dox-inducible miR-34, nuclei and caspase counts (AID 1347080)
- Test Context: A549 miR-34 inducible, Hoechst nuclei count, 48 h; measured here: total cells without miR-34 induction
Answer each item with its documented cell count.
Answers are plain numbers.

Compound | Result Number
COc1cc(C(=O)N2CCOCC2)cc(OC)c1OC | 12300

Below are some compounds; for each one, tell me its cell count.
1. CC[C@@H](CO)NCCN[C@@H](CC)CO
2. Cn1nnnc1SCC1=C(C(=O)O)N2C(=O)C(NC(=O)C(OC=O)c3ccccc3)C2SC1 (configuration not stated)
3. CN(C)CCN(Cc1ccc(Cl)cc1)c1ccccn1
4. C=C1C[C@H]2[C@@H]3C=C(C)C4=CC(=O)CC[C@]4(C)[C@H]3CC[C@]2(C)[C@@]1(OC(C)=O)C(C)=O
5. Nc1c(CC(=O)O)cccc1C(=O)c1ccc(Br)cc1
6. COc1cc2cc3c4cc(OC)c(OC)cc4cc[n+]3c(C)c2cc1OC

1. 12600
2. 12600
3. 8880
4. 6660
5. 9120
6. 10200
